Below is a list of entries, each paired with its recorded TGI value.
# System: SK-OV-3 ovarian
# TEST PROTOCOL: NCI tumour cell line growth inhibition, 48 h
Reply numerically in µM, unit not repeated.

O=C(NNS(=O)(=O)c1ccc(Cl)cc1Cl)c1cccnc1Nc1ccc(Cl)cc1	52.4
C[C@@H]1Cc2cc(O)ccc2[C@H]2CC[C@]3(C)/C(=C/COCCN(C)C)CC[C@H]3[C@H]12 (tested in a mixture with another compound)	0.62
CC[C@@]1(O)C(=O)OCc2c1cc1n(c2=O)Cc2c-1nc1ccccc1c2/C=N\NC(=O)C(N)CCSC (stereo not given in full)	7.73

I'd like to know its TGI. The compound in question is "C=CCc1cc(Nc2c3ccc(Cl)cc3nc3ccc(OC)cc23)cc(CN(CC)CC)c1O"
6.62

Moving on to the next compound: "CC1=C(C(=O)Nc2ccc(Cl)c(Cl)c2)C(c2ccc([N+](=O)[O-])cc2)C(C(=O)Nc2ccc(Cl)c(Cl)c2)=C(C)N1"
24.8

What about CCc1ccc2c(c1)N(CC(C)CN(C)C)c1ccccc1S2 (stereo not given) ?
18.7

// query: "Nc1nc2c(C(=O)O)c3ccc([N+](=O)[O-])cc3c(=O)n2c2ccccc12"
74.1

Please give the result for "CC1=NN(c2ccccc2)C(=O)/C1=C\c1ccc([N+](=O)[O-])cc1" too.
58.7
